What pIC50 was measured for each of the following?
Biological target: human MMP-9 (amino acids 107-446) (Homo sapiens, UniProt P14780)
Construct: human MMP-9 (amino acids 107-446); made in house
Sequence (P14780 107-446): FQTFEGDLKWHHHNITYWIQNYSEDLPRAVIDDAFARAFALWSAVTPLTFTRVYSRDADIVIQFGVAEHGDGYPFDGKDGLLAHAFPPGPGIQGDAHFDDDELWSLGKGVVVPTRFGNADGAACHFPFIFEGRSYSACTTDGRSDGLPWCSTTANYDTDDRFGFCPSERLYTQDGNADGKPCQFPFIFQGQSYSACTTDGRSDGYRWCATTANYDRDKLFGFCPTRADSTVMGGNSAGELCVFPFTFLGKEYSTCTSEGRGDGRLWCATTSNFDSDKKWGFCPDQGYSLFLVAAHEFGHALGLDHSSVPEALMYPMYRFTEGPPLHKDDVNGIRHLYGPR
Assay: MMP dose response assay for determining IC50, MMP-9
Assay type: biochemical
Settings: recombinant enzyme, fluorescent-quench substrate 100 nM; read-out: MMP-9
Procedure: MMP Dose Response Assay for Determining IC50 The following method was used for determining IC50 values of different inhibitor compounds against multiple MMP enzymes. […] Enzyme concentrations in the assay were determined empirically and set such that proteolytic activity was maintained in a linear range over the time-course of the experiment. […] Data was analyzed by first calculating average background value from wells that contained only substrate, and this value was subtracted from the entire plate. […]
Answers are plain numbers, as −log10 of the molar value.

Prompt: Please tell me the measured pIC50 for CC(C)N[C@@H](CN(c1ccc(Oc2ccc(C(F)(F)F)cn2)cc1)S(C)(=O)=O)C(=O)NO ; system: human MMP-9 (amino acids 107-446) (Homo sapiens, UniProt P14780).
Completion: 6.84

Prompt: Please tell me the measured pIC50 for Cc1ccc(Oc2ccc(N(C[C@H](O)C(=O)NO)S(=O)(=O)Cc3cccnc3)cc2)cc1 ; system: human MMP-9 (amino acids 107-446) (Homo sapiens, UniProt P14780).
Completion: 7.16

Prompt: Please tell me the measured pIC50 for Cc1ccc(Oc2ccc(N(C[C@H](N[C@@H](C)c3ccccc3)C(=O)NO)S(C)(=O)=O)cc2)cc1 ; system: human MMP-9 (amino acids 107-446) (Homo sapiens, UniProt P14780).
Completion: 9.27

Prompt: Please tell me the measured pIC50 for CO[C@@H](CN(c1ccc(Oc2ccc(C)cc2)cc1)S(C)(=O)=O)C(=O)NO ; system: human MMP-9 (amino acids 107-446) (Homo sapiens, UniProt P14780).
Completion: 8.38

Prompt: Please tell me the measured pIC50 for Cc1ccc(Oc2ccc(N(C[C@H](NCc3cccnc3)C(=O)NO)S(C)(=O)=O)cc2)cc1 ; system: human MMP-9 (amino acids 107-446) (Homo sapiens, UniProt P14780).
Completion: 8.55

// each listed molecule needs a value for pIC50
1. CS(=O)(=O)N(C[C@H](NCCc1c[nH]c2ccccc12)C(=O)NO)c1ccc(Oc2ccc(C(F)(F)F)cc2)cc1
2. CC(C)N(Cc1ccccc1)[C@@H](CN(c1ccc(Oc2ccc(C(F)(F)F)cc2)cc1)S(C)(=O)=O)C(=O)NO

Completion:
[6.94, 7.17]
